// data source = patent US7666890B2

Test system: Chenopodium album
Test: Test of herbicidal activities (greenhouse pot method)
Format: in vivo
Conditions: single dose 300 g ai./h, treated before/after germination, 15 days later, greenhouse pot
Quantity Name: Herbicidal activity Chenopodium album (inhibition level)

Worked cases, answers included:
- Cc1nn(-c2cc3nc(SCc4ccccc4)sc3cc2F)c(=O)n1C(F)F: C (60 ≦ C < 80%)
- CCCCCCSc1nc2cc(-n3nc(C)n(C(F)F)c3=O)c(Cl)cc2s1: B (80 ≦ B < 90%)
- CCOC(=O)CSc1nc2cc(-n3nc(C(F)(F)F)n(C(F)F)c3=O)c(Br)cc2s1: B (80 ≦ B < 90%)
- Cc1ccc([N+](=O)[O-])c(CS(=O)(=O)c2nc3cc(-n4nc(C)n(C(F)F)c4=O)c(F)cc3s2)c1: C (60 ≦ C < 80%)
- Cc1nn(-c2cc3nc([S+]([O-])Cc4cccc(Cl)c4)sc3cc2Cl)c(=O)n1C(F)F (centres unmarked): B (80 ≦ B < 90%)

Ask | Look at this compound and give its reported Herbicidal activity Chenopodium album (inhibition level). CCSc1nc2cc(-n3nc(C)n(C(F)F)c3=O)c(F)cc2s1
Reply | A (90 ≦ A ≦ 100%)

Ask | What value of Herbicidal activity Chenopodium album (inhibition level) has been recorded for this entry: Cc1nn(-c2cc3nc([S+](C)[O-])sc3cc2F)c(=O)n1C(F)F (centres unmarked)
Reply | B (80 ≦ B < 90%)
